# target.or.system: T1, human BR3 extracellular domain (human, UniProt Q96RJ3 1-61)
# T1 construct: biotinylated where used as tracer; also called hBR3-ECD; BR3-ECD
# assay.summary: phage competition ELISA
Doc: threshold 9 nM (exclusive). Items with IC50 beneath it return yes; others return no.

Example entries begin here.
1) 9 (Fab, V domains shown, also called V3-9) VH: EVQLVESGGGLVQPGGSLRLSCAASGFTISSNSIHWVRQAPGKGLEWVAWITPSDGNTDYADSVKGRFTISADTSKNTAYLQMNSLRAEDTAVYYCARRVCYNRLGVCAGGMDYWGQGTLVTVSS VL: DIQMTQSPSSLSASVGDRVTITCRASQDVSTAVAWYQQKPGKAPKLLIYSASFLYSGVPSRFSGSGSGTDFTLTISSLQPEDFATYYCQQSHNTPPTFGQGTKVEIKR: no
2) V3-46 phage clone (Fab, V domains shown, also called V3-46 WT; clone 46) VH: EVQLVESGGGLVQPGGSLRLSCAASGFTISNSSIHWVRQAPGKGLEWVAWVLPSVGFTDYADSVKGRFTISADTSKNTAYLQMNSLRAEDTAVYYCARRVCYNRLGVCAGGMDYWGQGTLVTVSS VL: DIQMTQSPSSLSASVGDRVTITCRASQDVSTAVAWYQQKPGKAPKLLIYSASFLYSGVPSRFSGSGSGTDFTLTISSLQPEDFATYYCQQSQISPPTFGQGTKVEIKR: yes

stdin: Determine whether this binder shows IC50 lower than 9 nM (ties excluded): 27 (Fab, V domains shown, also called V3-27) VH: EVQLVESGGGLVQPGGSLRLSCAASGFTISSNSIHWVRQAPGKGLEWVAWITPSDGNTDYADSVKGRFTISADTSKNTAYLQMNSLRAEDTAVYYCARRVCYNHLGVCAGGMDYWGQGTLVTVSS VL: DIQMTQSPSSLSASVGDRVTITCRASQDVSTAVAWYQQKPGKAPKLLIYSASFLYSGVPSRFSGSGSGTDFTLTISSLQPEDFATYYCQQSRMSPPTFGQGTKVEIKR
stdout: no

stdin: Determine whether this binder shows IC50 lower than 9 nM (ties excluded): 16 (Fab, V domains shown, also called V3-16) VH: EVQLVESGGGLVQPGGSLRLSCAASGFSISSNSIHWVRQAPGKGLEWVAWITPTHGSTDYADSVKGRFTISADTSKNTAYLQMNSLRAEDTAVYYCARRVCYNRLGVCAGGMDYWGQGTLVTVSS VL: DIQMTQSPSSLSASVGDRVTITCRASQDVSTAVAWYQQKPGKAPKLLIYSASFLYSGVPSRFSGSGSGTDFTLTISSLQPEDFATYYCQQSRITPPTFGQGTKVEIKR
stdout: yes

stdin: Determine whether this binder shows IC50 lower than 9 nM (ties excluded): 24 (Fab, V domains shown, also called V3-24) VH: EVQLVESGGGLVQPGGSLRLSCAASGFSIRSISIHWVRQAPGKGLEWVAWITPFNGTTDYADSVKGRFTISADTSKNTAYLQMNSLRAEDTAVYYCARRVCYNRLGVCAGGMDYWGQGTLVTVSS VL: DIQMTQSPSSLSASVGDRVTITCRASQDVSTAVAWYQQKPGKAPKLLIYSASFLYSGVPSRFSGSGSGTDFTLTISSLQPEDFATYYCQQSLITPPTFGQGTKVEIKR
stdout: yes
